tested on: Bacillus subtilis 168; assay: Bacterial growth in microscale cultivation, B. subtilis; format: cell-based; conditions: complex medium, 4 µM, relative to control
reported-property: Lag Phase

compound="O=C(/C=C/c1ccc(O)c(O)c1)c1ccc(O)cc1O [Compound 8, 2′,4′,3,4-Tetrahydroxy-chalcone]" reported_property="Lag Phase" test_value=86,5%
compound="O=C(/C=C/c1ccccc1O)c1ccc(O)cc1O [Compound 7, 2′,4′,2-Trihydroxychalcone]" reported_property="Lag Phase" test_value=100,0%
compound="O=C(/C=C/c1ccc(O)cc1)c1ccc(O)cc1O [Compound 6, 2′,4′,4-Trihydroxychalcone]" reported_property="Lag Phase" test_value=100,0%
compound="O=C(/C=C/c1ccccc1)c1ccc(O)cc1O [Compound 4, 2′,4′-Dihydroxychalcone]" reported_property="Lag Phase" test_value=107,7%
compound="O=C(/C=C/c1ccc(O)cc1)c1ccccc1O [Compound 3, 2′,4-Dihydroxychalcone]" reported_property="Lag Phase" test_value=105,7%

Where these numbers come from: paper PMC4893628
